Biological target: NAMPT (human, recombinant, C-terminally His-tagged) (Homo sapiens)
Sequence (P43490 whole entry): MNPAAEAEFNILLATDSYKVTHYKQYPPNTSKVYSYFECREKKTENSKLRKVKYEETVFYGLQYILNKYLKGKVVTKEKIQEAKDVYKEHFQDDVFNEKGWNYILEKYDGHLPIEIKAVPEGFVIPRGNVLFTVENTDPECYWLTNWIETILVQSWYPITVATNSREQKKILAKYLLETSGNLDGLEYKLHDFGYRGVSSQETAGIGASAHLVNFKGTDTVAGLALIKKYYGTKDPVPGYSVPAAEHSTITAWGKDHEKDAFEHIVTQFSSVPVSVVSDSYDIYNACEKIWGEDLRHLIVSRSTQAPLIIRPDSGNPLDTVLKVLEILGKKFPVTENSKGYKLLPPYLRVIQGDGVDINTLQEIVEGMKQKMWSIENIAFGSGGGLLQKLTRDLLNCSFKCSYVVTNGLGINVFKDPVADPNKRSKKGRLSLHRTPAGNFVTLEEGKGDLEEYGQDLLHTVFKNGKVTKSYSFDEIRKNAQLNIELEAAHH
Assay: Time-Resolved Fluorescence Resonance Energy Transfer (TR-FRET) Binding Assay of NAMPT
Conditions: 6.8 nM NAMPT, 200 nM probe, equilibrated 3 hours, absence of substrates
hey, just use condition met if measured IC50 is less than 30 nM, otherwise condition not met

Worked set:
molecule=CC[C@H](C)C(=O)N1CCC(Oc2ccc(NC(=O)C3CN(c4cccnn4)C3)cc2)CC1 category="condition not met"
molecule=COCC(=O)N1CCC(c2ccc(NC(=O)C3CN(c4cccnc4)C3)cc2)CC1 category="condition not met"
molecule=O=C(Nc1ccc(OC2CCN(C(=O)CC3CC3)CC2)cc1)C1CN(c2cccnn2)C1 category="condition not met"
molecule=O=C(Nc1ccc(OC2CCN(C(=O)c3cccc(Cl)c3)CC2)cc1)C1CN(c2ccnnc2)C1 category="condition not met"
molecule=O=C(Nc1ccc(OC2CCN(C(=O)CC3CCOCC3)CC2)cc1)C1CN(c2cnccc2F)C1 category="condition not met"

Bench note: check whether O=C(Nc1ccc(OC2CCN(C(=O)c3ccccn3)CC2)cc1)C1CN(c2ccnnc2)C1 shows IC50 below 30 nM
condition not met

Check if IC50 falls below 30 nM for Cc1ncccc1N1CC(C(=O)Nc2ccc(C3CCN(C(=O)c4ccccc4)CC3)cc2)C1 .
condition met

Identify whether the molecule O=C(Nc1ccc(C2CCN(C(=O)c3ccccc3O)CC2)cc1)C1CN(c2cccnn2)C1 records IC50 below 30 nM.
condition met

Does this molecule meet the criterion IC50 < 30 nM? O=C(Nc1ccc(OC2CN(C(=O)c3ccccc3)C2)cc1)C1CN(c2ccnnc2)C1
condition met

Quick check: does O=C(Nc1ccc(OC2CCN(C(=O)c3cccc(C(F)(F)F)c3)CC2)cc1)C1CN(c2ccnnc2)C1 have IC50 under 30 nM?
condition not met

A record lists CC(=O)N1CCC(C(=O)N2CCC(c3ccc(NC(=O)C4CN(c5cccnn5)C4)cc3)CC2)CC1 . Is its IC50 below 30 nM?
condition not met

Quick check: does O=C(Nc1ccc(C2CCN(C(=O)Cc3ccccc3Cl)CC2)cc1)C1CN(c2cccnn2)C1 have IC50 under 30 nM?
condition met

Does this molecule meet the criterion IC50 < 30 nM? O=C(Nc1ccc(OC2CCN(C(=O)c3cccc(OC(F)(F)F)c3)CC2)cc1)C1CN(c2ccnnc2)C1
condition not met

I wonder whether O=C(Nc1ccc(OC2CCN(C(=O)Cc3cccc(C(F)(F)F)c3)CC2)cc1)C1CN(c2ccnnc2)C1 has IC50 below 30 nM. Can you tell?
condition not met

Regarding O=C(Nc1ccc(C2CCN(C(=O)c3ccc(Cl)c(Cl)c3)CC2)cc1)C1CN(c2cccnn2)C1 , kindly confirm whether its IC50 is beneath 30 nM.
condition not met

Strictly below 30 nM: is that where IC50 of O=C1CC[C@@H](C(=O)N2CCC(c3ccc(NC(=O)C4CN(c5cccnc5)C4)cc3)CC2)N1 sits?
condition not met

In the record for O=C(Nc1ccc(C2CCN(CC3CCCC3)CC2)cc1)C1CN(c2cccnc2)C1 , is IC50 less than 30 nM?
condition not met

Item CC(C)CC(=O)N1CCC(Oc2ccc(NC(=O)C3CN(c4cccnc4)C3)cc2)CC1 : IC50 beneath 30 nM, strictly?
condition not met

Lab note: IC50 threshold 30 nM. Does this molecule come in strictly under it? O=C(Nc1ccc(C2CCN(C(=O)CC3CCCC3)CC2)cc1)C1CN(c2ccnnc2)C1
condition met

IC50 strictly < 30 nM for this molecule? Cc1ncccc1N1CC(C(=O)Nc2ccc(C3CCN(C(=O)CN4CCCC4)CC3)cc2)C1
condition not met

Does CC1(C(=O)N2CCC(c3ccc(NC(=O)C4CN(c5cccnc5)C4)cc3)CC2)CCCCC1 have IC50 strictly under 30 nM?
condition met

Find out if reported IC50 for CC[C@H](C)C(=O)N1CCC(c2ccc(NC(=O)C3CN(c4ccnnc4)C3)cc2)CC1 is less than 30 nM
condition met

Please state whether IC50 is below 30 nM for O=C(Nc1ccc(OC2CCN(C(=O)c3cccs3)CC2)cc1)C1CN(c2cccnn2)C1
condition not met

In plain terms, does CC(C)C(=O)N1CCC(c2ccc(NC(=O)C3CN(c4cccnc4)C3)cc2)CC1 come in under 30 nM for IC50?
condition met

Report whether reported IC50 is lower than 30 nM (strictly) for CN(C)CCC(=O)N1CCC(c2ccc(NC(=O)C3CN(c4cccnc4)C3)cc2)CC1
condition not met

Data credit: patent US8975398B2
